The values you see were collected from ChEMBL document CHEMBL2424622.

Tested Target: Casein kinase I isoform gamma-1 (Homo sapiens) (UniProt Q9HCP0)
Sequence (Q9HCP0 whole entry, looked up, canonical isoform): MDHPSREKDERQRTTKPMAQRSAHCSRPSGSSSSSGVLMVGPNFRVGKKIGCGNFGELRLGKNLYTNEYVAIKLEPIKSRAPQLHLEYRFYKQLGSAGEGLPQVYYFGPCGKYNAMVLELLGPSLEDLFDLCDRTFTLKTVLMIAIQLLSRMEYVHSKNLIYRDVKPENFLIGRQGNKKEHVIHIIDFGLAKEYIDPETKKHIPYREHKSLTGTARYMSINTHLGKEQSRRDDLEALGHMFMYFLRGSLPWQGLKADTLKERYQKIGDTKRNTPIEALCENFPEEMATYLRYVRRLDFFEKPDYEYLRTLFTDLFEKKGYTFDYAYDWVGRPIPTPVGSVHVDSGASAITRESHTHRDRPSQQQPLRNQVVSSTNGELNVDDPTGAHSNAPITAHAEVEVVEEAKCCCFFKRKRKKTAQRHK
Assay Remarks: Competitive binding affinity to CSNK1G1 (unknown origin) at 10 uM in presence of ATP relative to control
Property: inhibition (%)
Answer with a number only, understood to be in %.

Below: 3 molecules and their reported inhibition.
| Smiles Structure | inhibition [%] |
| --- | --- |
| O[C@H]1CC[C@H](Nc2nccc(-n3nnc4ccccc43)n2)CC1 | 97 |
| N[C@H]1CC[C@H](Nc2nccc(-n3nnc4ccccc43)n2)CC1 | 100 |
| O=C([C@H]1CC[C@H](Nc2nccc(-n3nnc4ccccc43)n2)CC1)N1CCOCC1 | 75 |

# evaluate next
Asked: Given the molecule O[C@H]1CC[C@H](Nc2nccc(-c3n[nH]c4ccccc34)n2)CC1 , write its reported inhibition.
Given back: 92
